Run conditions: Log P, [a] LC-UV, acidic range

{"Compound": "C#CCOc1ccc(F)c(F)c1C1CC(c2csc(C3CCN(C(=O)Nc4cc(C)ccc4C)CC3)n2)=NO1 (stereo not shown)", "chromatographic logP": 3.45}
